Assay: Inhibition of AKT -mediated FOXO1a nuclear export in human 786-O cells
Type: cell-based
Measurement Type: IC50 (µM)
Answers are plain numbers, in µM.

Request: Complete the entry with IC50 for `CC[n+]1c(/C=C/N(C)c2ccccc2)n(-c2ccccc2)c2ccc(-c3nc4ccccc4s3)cc21`
Result: 0.625

###

Experiment: Antiviral activity against Parainfluenza virus 5 expressing renilla luciferase infected in HeLa cells assessed as inhibition viral replication by luciferase based reporter gene assay
Type: functional, cell-based
Settings: hela

- Molecular String: "CC[n+]1c(/C=C/N(C)c2ccccc2)n(-c2ccccc2)c2ccc(-c3nc4ccccc4s3)cc21"
  IC50: "Dose-dependent effect"
- Molecular String: "CN(/C=C/c1n(-c2ccccc2)c2ccc(-c3nc4ccccc4s3)cc2[n+]1CCc1ccccc1)c1ccccc1.[I-]"
  IC50: "Dose-dependent effect"
- Molecular String: "CCCCCCCCCCCC[n+]1c(/C=C/N(C)c2ccccc2)n(-c2ccccc2)c2ccc(-c3nc4ccccc4s3)cc21.[I-]"
  IC50: "Dose-dependent effect"
- Molecular String: "CCCCCC[n+]1c(/C=C/N(C)c2ccccc2)n(-c2ccccc2)c2ccc(-c3nc4ccccc4s3)cc21.[I-]"
  IC50: "Dose-dependent effect"
